Reported TGI values are given for each entry in this list.
System: SF-295 CNS
experiment: NCI tumour cell line growth inhibition, 48 h
measured-quantity: TGI

>>> measured("N#Cc1nc2ccccc2nc1N1CCN(c2ccc([N+](=O)[O-])cc2)CC1")
"> 100 µM"
>>> measured("O=C(O)CC(CC(=O)O)C(=O)O")
"> 100 µM"
>>> measured("O=S1(=O)C[C@H](O)[C@H](O)CS1")
"> 100 µM"
>>> measured("OC[C@H]1C[C@](O)(c2ccc(Cl)cc2)[C@@H](c2ccc(Cl)cc2)O1")
"84.8 µM"
>>> measured("C=C1C(=O)C[C@H]2C(=C)C(=O)O[C@@H]2C2C1CC[C@@]2(C)O (stereo partly drawn)")
"> 100 µM"
>>> measured("C=COCCCOc1ccccc1")
"> 100 µM"
>>> measured("CN(C)N=Nc1ccc(NC=O)cc1")
"> 100 µM"
>>> measured("Cc1cc(C)n(C(=C(C(Cl)=C(Cl)Cl)[N+](=O)[O-])n2nc(C)cc2C)n1")
"14.8 µM"
>>> measured("O=C(OC(CNc1cc(=O)n(Cc2ccccc2)c(=O)n1Cc1ccccc1)CN1CCCC1)c1ccccc1 (stereo not drawn)")
"> 100 µM"
>>> measured("CC1(C)CC(=O)c2[nH]c3ccccc3c2CC(=O)NCCc2cn1cn2")
"> 100 µM"
>>> measured("COc1cc(C2CC(c3cccc(Br)c3)=NN2C(C)=O)cc(OC)c1OC (stereo not drawn)")
"16.3 µM"
>>> measured("CC(C)c1ccccc1NC(=O)CCc1n[nH]c(=S)o1")
"> 100 µM"
>>> measured("Cn1c2c(c3ccccc31)C1CCCCCCC1C1C(=O)OC(=O)C21 (stereo not drawn)")
"> 100 µM"

----------
Tested on: SF-295 CNS
experiment: NCI tumour cell line growth inhibition, 48 h
measured-quantity: TGI (µM)

>>> measured("CC(=O)c1ccc(NCc2cc(O)ccc2O)cc1")
34.6
>>> measured("CCOC(=O)C1=C(C)N(Cc2ccc(Cl)cc2Cl)C2(O)C=CC(=O)C3C(=O)N(c4ccccc4)C(=O)C132 (stereo unspecified)")
11.2
>>> measured("COc1cc(/C=C2\\C[C@H]3[C@@H]4CCc5cc(O)ccc5[C@H]4CC[C@]3(C)C2=O)cc(OC)c1OC")
27.4

----------
Test system: UACC-257 melanoma
experiment: NCI tumour cell line growth inhibition, 48 h
Reported TGI values are given for each entry in this list.
measured-quantity: TGI

>>> measured("CS(=O)(=O)Nc1ccc2c(c1)oc(=O)c1ccccc12")
"> 100 µM"
>>> measured("O=C(O)CC1NC(/C(=C/c2ccccc2)NC(=O)c2ccccc2)OC1=O (configuration not stated)")
"> 100 µM"
>>> measured("CC(C)(Cl)C(Br)CCC(C)(Cl)C(Br)CBr (configuration not stated)")
"51 µM"
>>> measured("OC1(C(F)(F)F)OCCN=C1C(F)(F)F (configuration not stated)")
"> 100 µM"
>>> measured("Cc1ccc(Cc2c(=O)[nH]nc3ccccc23)cc1")
"> 100 µM"
>>> measured("Cn1cc(CO)c2c1C(=O)C=C(N1CC1)C2=O")
"0.0692 µM"
>>> measured("OC[C@H]1C[C@](O)(c2ccc(Cl)cc2)[C@@H](c2ccc(Cl)cc2)O1")
"44.7 µM"
>>> measured("COC(=O)C1=C(C)NC2=C(C(=O)c3ccccc32)C1c1cn(-c2ccccc2)nc1-c1ccccc1 (configuration not stated)")
"> 100 µM"
>>> measured("CCCCCCNC(=O)c1cc(NCc2cc(O)ccc2O)ccc1O")
"30.4 µM"
>>> measured("COc1cc2nc(-c3ccc(Cl)cc3)cc(OCCCN3CCCCC3)c2cc1OC")
"4.46 µM"
>>> measured("CC(O)CCC(=O)c1ccoc1 (configuration not stated)")
"> 10000 µM"
>>> measured("c1nc(OCC2CCCCC2)c2[nH]cnc2n1")
"> 100 µM"
>>> measured("O=C(OC(CNc1cc(=O)n(Cc2ccccc2)c(=O)n1Cc1ccccc1)CN1CCCC1)c1ccccc1 (configuration not stated)")
"> 100 µM"
>>> measured("O=C(O)c1ccc(Nc2c3ccccc3nc3ccccc23)cc1")
"> 100 µM"
>>> measured("CS(=O)(=O)O[C@H]1CN2C[C@@H](O)[C@@H](O)[C@H]2[C@H]1CO")
"> 100 µM"
>>> measured("COc1ccc(-n2cc(-c3cc(OC)c(OC)c(OC)c3)c(C(=O)C(F)(F)F)c2C)cc1")
"> 100 µM"
>>> measured("O=C1/C(=C/c2ccc(Br)cc2)COc2ccc(O)c(O)c21")
"6.78 µM"
>>> measured("CC(C)CCN1c2nc(Nc3cc(F)c(O)c(F)c3)ncc2N(C)C(=O)C1C (configuration not stated)")
"> 88.2 µM"
>>> measured("CC(=O)O[C@H]1C[C@H]2[C@@H](OC(C)=O)/C=C3\\C[C@](C)(C(=O)[C@H](O)C(=C1C)C2(C)C)[C@@H](O)C[C@@H]3OC(=O)[C@H](O)[C@H](c1ccccc1)N(C)C")
"> 100 µM"
>>> measured("CCc1cc2c(oc3cc4ccccc4cc32)c(=O)[nH]1")
"> 10 µM"
>>> measured("COC(=O)C(=Cc1cc(OC)ccc1OC)C(=O)OC")
"35.1 µM"
>>> measured("O=[N+]([O-])c1ccc(C2=Nn3cnnc3SC2)o1")
"29.6 µM"

----------
Reported TGI values are given for each entry in this list.
Test system: OVCAR-3 ovarian
experiment: NCI tumour cell line growth inhibition, 48 h
measured-quantity: TGI (µM)

>>> measured("N#Cc1c(NN)n(C2OC(CO)C(O)C2O)c2ncnc(N)c12 (stereo unspecified)")
0.299
>>> measured("CCCCCCCCCCCCOC1C(C(COC2OC(C3COC(C)(C)O3)C3OC(C)(C)OC23)NC(=O)Nc2ccc(C(=O)O)cc2)OC2OC(C)(C)OC21 (stereo unspecified)")
7.49
>>> measured("CCOc1ccccc1C=C1c2ccccc2C(=O)c2ccccc21")
10.5
>>> measured("CCOC(=O)CCCn1c(SC)nc2[nH]cc(-c3ccccc3)c2c1=O")
42.6
>>> measured("COc1cccc2c1OC(c1ccc(Cl)cc1)C([N+](=O)[O-])=C2 (stereo unspecified)")
7.08
>>> measured("O=C(CNc1ccc(Cl)cc1)Nc1ccc(-c2nc3ccccc3s2)cc1")
3.99
>>> measured("COc1ccc(CN2C(=O)/C(=C\\C(=O)c3ccc(OCCN4CCCCC4)cc3)c3ccccc32)cc1")
3.94
>>> measured("CC(C)=CCNc1ncnc2c1ncn2C1OC(CO)C(O)C1O (stereo unspecified)")
1.1
>>> measured("O=C1/C(=C/c2ccc(Br)cc2)COc2ccc(O)c(O)c21")
1.56
>>> measured("N#Cc1c(-c2ccc(Cl)cc2)c2c([nH]c1=O)-c1ccccc1SC2")
92.7
>>> measured("O=C(Cc1ccc(/C=C/C(=O)c2ncc[nH]2)cc1)Nc1cc(F)c(F)c(F)c1")
6.14
>>> measured("COC1(OC)CC2C(=O)N(Cc3ccccc3)C1C(S(=O)(=O)c1ccccc1)C2S(=O)(=O)c1ccccc1 (stereo unspecified)")
22.9
>>> measured("FC(F)(F)c1ccc(N=C/C=C(/Nc2ccc(C(F)(F)F)cc2)c2ccc(Cl)cc2)cc1")
27.9
>>> measured("COC(=O)C(=Cc1cc(OC)ccc1OC)C(=O)OC")
50.6
>>> measured("CC(C)(C)[Si](C)(C)OCC1OC(n2ccc(N)nc2=O)C(O[Si](C)(C)C(C)(C)C)C1O[Si](C)(C)C(C)(C)C (stereo unspecified)")
3.3
>>> measured("CC(=O)c1ccc(NCc2cc(O)ccc2O)cc1")
19.8
>>> measured("CC(C)(C)NC(NC(C)(C)C)=C(/C=C(/Cl)[N+](=O)[O-])[N+](=O)[O-]")
49.7
>>> measured("O=C(NC(Cc1c[nH]c2ccccc12)C(=O)Nc1ccc(Br)cc1)OCc1ccccc1 (stereo unspecified)")
36.6

----------
System: HCT-15 colon
experiment: NCI tumour cell line growth inhibition, 48 h
Reported TGI values are given for each entry in this list.
measured-quantity: TGI

>>> measured("O=C1NC(=O)C(c2c[nH]c3ccccc23)=C1c1cnc[nH]1")
"> 100 µM"
>>> measured("NC(=Nc1c([N+](=O)[O-])cnc2ccccc12)N1CCOCC1")
"> 100 µM"
>>> measured("Cc1ccc(Cc2c(=O)[nH]nc3ccccc23)cc1")
"> 100 µM"
>>> measured("CC1=NNC(=O)C2CCC(=O)N12 (stereo unspecified)")
"> 100 µM"
>>> measured("CCOc1ccccc1C=C1c2ccccc2C(=O)c2ccccc21")
"> 100 µM"
>>> measured("NC(=O)NC1C(c2ccccc2)=C1c1ccccc1")
"32.4 µM"
>>> measured("CC(C)c1ccccc1NC(=O)CCc1n[nH]c(=S)o1")
"> 56.9 µM"
>>> measured("Oc1cn(-c2ccc(Cl)cc2)nc1-c1nnc(-c2ccccc2)o1")
"27.2 µM"
>>> measured("Cc1cc2c(cc1Cl)SC(NS(=O)(=O)c1ccc(Cl)cc1)=NS2(=O)=O")
"> 100 µM"
>>> measured("CCCCS(=O)CCC(N)P(=O)(O)O (stereo unspecified)")
"> 100 µM"
>>> measured("O=C1NC(=O)C(c2cnc3ccccn23)=C1c1cn2c3c(cc(F)cc13)CN(C(=O)N1CCCCC1)CC2")
"66.9 µM"

Ref: PubChem BioAssay (NCI)
